assay: NCI Yeast Anticancer Drug Screen. Data for the mlh1 rad18 strain (AID 175); conditions: S. cerevisiae mlh1 rad18 strain growth inhibition; at 50.0 µM
This is part of a sample that, as a whole, favours compounds with a hit. Of some 79,000 tested, about 15% had one in any assay. Activity calls are given as the source filed them. No stated cut-off is given here; in the data, active means growth inhibition above about 70%; inactive means the rest.
Hi! Could you answer with just one of these? true (1) = active, false (0) = inactive

In [3]: df
Out[3]:
                                   molecule  class_assignment
0  N#CN(Cc1ccccc1)C(c1ccccc1)(c1ccccc1)c1ccccc1.[Cl][Sn]([c]1ccccc1)([c]1ccccc1)[c]1ccccc1          true (1)
1  CN1CN(c2ccccc2)C2(CCN(C3Nc4ccccc4O3)CC2)C1=O (stereo unspecified)         false (0)
2  COc1cc(C(c2c(O)c3ccccc3oc2=O)c2c(O)c3ccccc3oc2=O)cc(OC)c1O          true (1)

Query: Returns: the outcome recorded for COc1cc2ccccc2c2cc([N+](=O)[O-])oc12 in this assay.
Response: true (1)

Query: Returns: the outcome recorded for O=[N+]([O-])[O][Tl]([c]1ccccc1)[c]1ccccc1 in this assay.
Response: false (0)

Query: Returns: the outcome recorded for O=[N+]([O-])c1cc(S(=O)(=O)F)ccc1S in this assay.
Response: true (1)

Query: Returns: the outcome recorded for [Cl][Pt+2][Cl].[NH-]C1CCCC2CCC[N-]C12 (stereo unspecified) in this assay.
Response: true (1)

Query: Returns: the outcome recorded for CN1C(=O)CC[C@@]2(C)C1=CC[C@H]1[C@@H]3CC[C@H](O)[C@@]3(C)CC[C@@H]12 in this assay.
Response: false (0)

Query: Returns: the outcome recorded for CC1(C)N=C(N)N=C(N)N1c1cccc(N)c1.[Sn] in this assay.
Response: false (0)

Query: Returns: the outcome recorded for C=Cc1cc(OC)c2c(c1)c(=O)oc1c2cc(OC)c2c(O)ccc(C3OC(C)C(O)C(C)(O)C3O)c21 (stereo unspecified) in this assay.
Response: true (1)

Query: Returns: the outcome recorded for Cc1cc(C)c(O)c(C)c1.[Hg] in this assay.
Response: true (1)

Query: Returns: the outcome recorded for CCCCCCCCCCCC[As](=O)(O)O in this assay.
Response: true (1)
